Reference source: patent US20230183381A1

I'd appreciate it if you could supply pEC50 values for the items below.
Target: T1, human CD38 extracellular domain (hCD38, recombinant, with AviTag) (human, UniProt P28907 43-300)
T1 construct: also called recombinant CD38; huCD38
Assay: ELISA on human CD38 ECD, EC50 class
pEC50: −log10 of the molar value.

Req: State the recorded pEC50 for this entry: Anti-CD38 HC_S99A (antibody, V domains shown, Alanine variant of h18E4-19 with the parent VL) VH: EVQLLESGGGLVQPGGSLRLSCAASGFSFNNYWIIWIRQAPGKGLEWVAAIYSPSGDIKYYADWAKGRFTVSKDNSKNTVYLQMNSLRAEDTAVYYCARELSGASYEGYFESWGQGTLVTVSS VL: DIQLTQSPSTLSASVGDRVTITCRSSQSVYGHNWLAWYQQKPGKAPKLLMYRASNLASGVPSRFSGSGSGTEFTLTISSVQPDDFATYYCQGYYSGGSYAFGGGTKVEIK
Resp: 10.00 to 10.70

Req: State the recorded pEC50 for this entry: Anti-CD38 HC_G100cA (antibody, V domains shown, Alanine variant of h18E4-19 with the parent VL) VH: EVQLLESGGGLVQPGGSLRLSCAASGFSFNNYWIIWIRQAPGKGLEWVAAIYSPSGDIKYYADWAKGRFTVSKDNSKNTVYLQMNSLRAEDTAVYYCARELSGSSYEAYFESWGQGTLVTVSS VL: DIQLTQSPSTLSASVGDRVTITCRSSQSVYGHNWLAWYQQKPGKAPKLLMYRASNLASGVPSRFSGSGSGTEFTLTISSVQPDDFATYYCQGYYSGGSYAFGGGTKVEIK
Resp: 9.30 to 10.00

Req: State the recorded pEC50 for this entry: Anti-CD38 LC_S95aA (antibody, V domains shown, Alanine variant of h18E4-19 with the parent VH) VH: EVQLLESGGGLVQPGGSLRLSCAASGFSFNNYWIIWIRQAPGKGLEWVAAIYSPSGDIKYYADWAKGRFTVSKDNSKNTVYLQMNSLRAEDTAVYYCARELSGSSYEGYFESWGQGTLVTVSS VL: DIQLTQSPSTLSASVGDRVTITCRSSQSVYGHNWLAWYQQKPGKAPKLLMYRASNLASGVPSRFSGSGSGTEFTLTISSVQPDDFATYYCQGYYSGGAYAFGGGTKVEIK
Resp: 10.00 to 10.70

Req: State the recorded pEC50 for this entry: Anti-CD38 LC_Q89A (antibody, V domains shown, Alanine variant of h18E4-19 with the parent VH; also called Anti-CD38med) VH: EVQLLESGGGLVQPGGSLRLSCAASGFSFNNYWIIWIRQAPGKGLEWVAAIYSPSGDIKYYADWAKGRFTVSKDNSKNTVYLQMNSLRAEDTAVYYCARELSGSSYEGYFESWGQGTLVTVSS VL: DIQLTQSPSTLSASVGDRVTITCRSSQSVYGHNWLAWYQQKPGKAPKLLMYRASNLASGVPSRFSGSGSGTEFTLTISSVQPDDFATYYCAGYYSGGSYAFGGGTKVEIK
Resp: 10.00 to 10.70

Req: State the recorded pEC50 for this entry: humanized h18E4-19 antibody (antibody, V domains shown, the control is hIgG1; also called hu18E4-19; Anti-CD38) VH: EVQLLESGGGLVQPGGSLRLSCAASGFSFNNYWIIWIRQAPGKGLEWVAAIYSPSGDIKYYADWAKGRFTVSKDNSKNTVYLQMNSLRAEDTAVYYCARELSGSSYEGYFESWGQGTLVTVSS VL: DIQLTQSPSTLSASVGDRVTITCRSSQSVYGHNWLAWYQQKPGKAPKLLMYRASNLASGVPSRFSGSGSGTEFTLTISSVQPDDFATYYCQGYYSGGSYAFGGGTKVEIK
Resp: 10.00 to 10.70
